# experimental protocol: Phase II clinical trial: pharmacokinetics of plasma Rabeximod (PK subgroup)
# Type: in vivo, human
# experimental parameters: human, plasma, oral, 15 mg, Week 12; 15 mg; read-out: geometric mean apparent terminal half-life (t1/2) (converted)
reported endpoint: half-life (h)
Write the number in h without appending the unit.

Please look up its half-life: Cc1cc2nc3c4cc(Cl)ccc4n(CC(=O)NCCN(C)C)c3nc2cc1C [Rabeximod]
77.1

###

# experimental protocol: Phase II clinical trial: pharmacokinetics of plasma Rabeximod (PK subgroup)
# Format: in vivo, human
# experimental parameters: human, plasma, po, 15 mg, Week 12; 15 mg once daily; RA patients, oral, with methotrexate; read-out: Cmax, Median
reported endpoint: Cmax (ng/mL)
Write the number in ng/mL without appending the unit.

Please look up its Cmax: Cc1cc2nc3c4cc(Cl)ccc4n(CC(=O)NCCN(C)C)c3nc2cc1C
91.6

###

# experimental protocol: Phase II clinical trial: pharmacokinetics of plasma Rabeximod (PK subgroup)
# Type: in vivo, human
# experimental parameters: human, plasma, po, 15 mg, Day 1 (equivalent to AUC0-t); 15 mg; RA patients, oral, with methotrexate; read-out: AUC0-τ, Median
reported endpoint: AUC (ng·h/mL)
Write the number in ng·h/mL without appending the unit.

Please look up its AUC: Cc1cc2nc3c4cc(Cl)ccc4n(CC(=O)NCCN(C)C)c3nc2cc1C
254

###

# experimental protocol: Phase II clinical trial: pharmacokinetics of plasma Rabeximod (PK subgroup)
# Assay type: in vivo, human
# experimental parameters: human, plasma, po, 37.5 mg, Day 1 (equivalent to AUC0-t); 37.5 mg; RA patients, oral, with methotrexate; read-out: AUC0-τ, Geometric mean
reported endpoint: AUC (ng·h/mL)
Write the number in ng·h/mL without appending the unit.

Please look up its AUC: Cc1cc2nc3c4cc(Cl)ccc4n(CC(=O)NCCN(C)C)c3nc2cc1C
689

###

# experimental protocol: Phase II clinical trial: pharmacokinetics of plasma Rabeximod (PK subgroup)
# Format: in vivo, human
# experimental parameters: human, plasma, po, 37.5 mg, Day 1; 37.5 mg; RA patients, oral, with methotrexate; read-out: Cmax, Median
# Description: A total of 9 visits occurred over the course of the study (screening, randomisation [Day 0, baseline]. Day 1, and Weeks 2, 4, 6, 8, 12 and 16). […] […] Compliance was monitored through drug accountability. […] Clinically significant protocol deviations were identified based on criteria determined by the project leader to be clinically relevant. […] Concentration-time profiles for plasma Rabeximod following single (Day 1) and repeated administration (Week 12) of Rabeximod were determined.
reported endpoint: Cmax (ng/mL)
Write the number in ng/mL without appending the unit.

Please look up its Cmax: Cc1cc2nc3c4cc(Cl)ccc4n(CC(=O)NCCN(C)C)c3nc2cc1C
41.8

###

# experimental protocol: Phase II clinical trial: pharmacokinetics of plasma Rabeximod (PK subgroup)
# Format: in vivo, human
# experimental parameters: human, plasma, po, 37.5 mg, Week 12; 37.5 mg once daily; RA patients, oral, with methotrexate; read-out: AUC0-t, Median
reported endpoint: AUC(0-t)

Please look up its AUC(0-t): Cc1cc2nc3c4cc(Cl)ccc4n(CC(=O)NCCN(C)C)c3nc2cc1C [Rabeximod]
17500 ng·h/mL

###

# experimental protocol: Phase II clinical trial: pharmacokinetics of plasma Rabeximod (PK subgroup)
# Type: in vivo, human
# experimental parameters: human, plasma, po, 6.35 mg, Week 12; 6.35 mg once daily; RA patients, oral, with methotrexate; read-out: Cmax, Geometric mean
reported endpoint: Cmax (ng/mL)
Write the number in ng/mL without appending the unit.

Please look up its Cmax: Cc1cc2nc3c4cc(Cl)ccc4n(CC(=O)NCCN(C)C)c3nc2cc1C
31

###

# experimental protocol: Phase II clinical trial: pharmacokinetics of plasma Rabeximod (PK subgroup)
# Assay type: in vivo, human
# experimental parameters: human, plasma, po, 15 mg, Week 12; 15 mg once daily; RA patients, oral, with methotrexate; read-out: AUC0-τ, Median
# Experimental: A total of 9 visits occurred over the course of the study (screening, randomisation [Day 0, baseline]. Day 1, and Weeks 2, 4, 6, 8, 12 and 16). […] […] Compliance was monitored through drug accountability. […] Clinically significant protocol deviations were identified based on criteria determined by the project leader to be clinically relevant. […] Concentration-time profiles for plasma Rabeximod following single (Day 1) and repeated administration (Week 12) of Rabeximod were determined.
reported endpoint: AUC (ng·h/mL)
Write the number in ng·h/mL without appending the unit.

Please look up its AUC: Cc1cc2nc3c4cc(Cl)ccc4n(CC(=O)NCCN(C)C)c3nc2cc1C [Rabeximod]
1480

###

# experimental protocol: Phase II clinical trial: pharmacokinetics of plasma Rabeximod (PK subgroup)
# Assay type: in vivo, human
# experimental parameters: human, plasma, po, 15 mg, Day 1; 15 mg; RA patients, oral, with methotrexate; read-out: Cmax, Geometric mean
reported endpoint: Cmax (ng/mL)
Write the number in ng/mL without appending the unit.

Please look up its Cmax: Cc1cc2nc3c4cc(Cl)ccc4n(CC(=O)NCCN(C)C)c3nc2cc1C
18.3

###

# experimental protocol: Phase II clinical trial: pharmacokinetics of plasma Rabeximod (PK subgroup)
# Assay type: in vivo, human
# experimental parameters: human, plasma, po, 15 mg, Week 12; 15 mg once daily; RA patients, oral, with methotrexate; read-out: Cmax, Geometric mean
reported endpoint: Cmax (ng/mL)
Write the number in ng/mL without appending the unit.

Please look up its Cmax: Cc1cc2nc3c4cc(Cl)ccc4n(CC(=O)NCCN(C)C)c3nc2cc1C
79.7

###

# experimental protocol: Phase II clinical trial: pharmacokinetics of plasma Rabeximod (PK subgroup)
# Type: in vivo, human
# experimental parameters: human, plasma, po, 37.5 mg, Day 1; 37.5 mg; RA patients, oral, with methotrexate; read-out: Cmax, Geometric mean
reported endpoint: Cmax
Enter the number, and then the unit.

Please look up its Cmax: Cc1cc2nc3c4cc(Cl)ccc4n(CC(=O)NCCN(C)C)c3nc2cc1C
0.0417 µg/mL

###

# experimental protocol: Phase II clinical trial: pharmacokinetics of plasma Rabeximod (PK subgroup)
# Assay type: in vivo, human
# experimental parameters: human, plasma, po, 37.5 mg, Week 12; 37.5 mg once daily; RA patients, oral, with methotrexate; read-out: Cmax, Geometric mean
reported endpoint: Cmax
Enter the number, and then the unit.

Please look up its Cmax: Cc1cc2nc3c4cc(Cl)ccc4n(CC(=O)NCCN(C)C)c3nc2cc1C
218 ng/mL

###

# experimental protocol: Phase II clinical trial: pharmacokinetics of plasma Rabeximod (PK subgroup)
# Format: in vivo, human
# experimental parameters: human, plasma, po, 6.35 mg, Week 12; 6.35 mg once daily; RA patients, oral, with methotrexate; read-out: Tmax, Median
reported endpoint: Tmax (h)
Write the number in h without appending the unit.

Please look up its Tmax: Cc1cc2nc3c4cc(Cl)ccc4n(CC(=O)NCCN(C)C)c3nc2cc1C [Rabeximod]
2.17

###

# experimental protocol: Phase II clinical trial: pharmacokinetics of plasma Rabeximod (PK subgroup)
# Type: in vivo, human
# experimental parameters: human, plasma, po, 15 mg, Day 1; 15 mg; RA patients, oral, with methotrexate; read-out: Tmax, Median
reported endpoint: Tmax

Please look up its Tmax: Cc1cc2nc3c4cc(Cl)ccc4n(CC(=O)NCCN(C)C)c3nc2cc1C
6.04 h

###

# experimental protocol: Phase II clinical trial: pharmacokinetics of plasma Rabeximod (PK subgroup)
# Type: in vivo, human
# experimental parameters: human, plasma, oral, 6.25 mg, Week 12; 6.25 mg; read-out: geometric mean apparent terminal half-life (t1/2) (converted)
reported endpoint: half-life (days)
Write the number in days without appending the unit.

Please look up its half-life: Cc1cc2nc3c4cc(Cl)ccc4n(CC(=O)NCCN(C)C)c3nc2cc1C
3.4

###

# experimental protocol: Phase II clinical trial: pharmacokinetics of plasma Rabeximod (PK subgroup)
# Format: in vivo, human
# experimental parameters: human, plasma, po, 37.5 mg, Week 12; 37.5 mg once daily; RA patients, oral, with methotrexate; read-out: AUC0-t, Geometric mean
reported endpoint: AUC(0-t)

Please look up its AUC(0-t): Cc1cc2nc3c4cc(Cl)ccc4n(CC(=O)NCCN(C)C)c3nc2cc1C [Rabeximod]
15900 ng·h/mL

###

# experimental protocol: Phase II clinical trial: pharmacokinetics of plasma Rabeximod (PK subgroup)
# Format: in vivo, human
# experimental parameters: human, plasma, po, 6.35 mg, Week 12; 6.35 mg once daily; RA patients, oral, with methotrexate; read-out: AUC0-τ, Median
reported endpoint: AUC (ng·h/mL)
Write the number in ng·h/mL without appending the unit.

Please look up its AUC: Cc1cc2nc3c4cc(Cl)ccc4n(CC(=O)NCCN(C)C)c3nc2cc1C
710
